- Measurement target: HA-NES-β23-NLUC-FUS(375-526)[P525L][R/S in 375-422 and 454-526] P525L; all Arg to Ser in 375-422 and 454-526 (UniProt P35637)
- Stated conditions: cEt at 1-5 and 16-20, DNA at 6-15; full PS; all C 5mC; nanoBRET
Recorded endpoint: Kd

Query string: Find the recorded Kd belonging to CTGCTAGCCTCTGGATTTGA [766635 (cEt 5-10-5 gapmer)] and report it.
Result string: > 1000 nM

====

- Measurement target: FUS(1-526)[P525L][R/S in 375-422 and 454-526]-NLUC-FLAG P525L; all Arg to Ser in 375-422 and 454-526 (UniProt P35637)
- Stated conditions: nanoBRET
Recorded endpoint: pKd
pKd here: minus log base 10 of the concentration, concentration in moles per litre.

Query string: Which pKd reading was recorded for the sequence CUGCUAGCCUCUGGAUUUGA [JB39 (RNA, phosphodiester)] ?
Result string: 6.61
